The measured values listed here are drawn from paper PMC12656327.

# Tested on: MRC-5 (human embryonic lung fibroblast) cells
# EXPERIMENT_SUMMARY: MTT cytotoxicity, MRC-5 cells, 72 h
# Assay type: cell-based
# MEASUREMENT_PARAMETERS: MRC5, 72 h exposure
MEASURED_METRIC: IC50 (µM)
A number alone suffices; assume µM.

The cases that follow already have their IC50 on record.
MOLECULE: O=[N+]([O-])c1ccccc1-c1nc(-c2no[n+]([O-])c2-c2noc(-c3ccccc3[N+](=O)[O-])n2)no1 [2d]
ASSAY_VALUE: 16.8
--
MOLECULE: [O-][n+]1onc(-c2noc(-c3ccccc3Cl)n2)c1-c1noc(-c2ccccc2Cl)n1 [2k]
ASSAY_VALUE: 7.8

Lookup result for [O-][n+]1onc(-c2noc(-c3ccccc3)n2)c1-c1noc(-c2ccccc2)n1 [2e] ; measured IC50: 17.7

----------
# Test system: JU77 (human malignant mesothelioma) cells
# MEASUREMENT_PARAMETERS: ratio of the IC50 value in MRC-5 to that in JU77
// SF JU77 (selectivity factor) lookup, one value per entry
Reply with just the number.

QUERY_SMILES: COc1ccc(-c2nc(-c3no[n+]([O-])c3-c3noc(-c4ccc(OC)c(OC)c4)n3)no2)cc1OC
EXPERIMENTAL_SYSTEM: JU77 (human malignant mesothelioma) cells
MEASURED_METRIC: SF JU77 (selectivity factor)
ASSAY_VALUE: 1.3

Could you now look at the following compound, please?
Consider [O-][n+]1onc(-c2noc(-c3ccccc3)n2)c1-c1noc(-c2ccccc2)n1 . Its measured SF JU77 (selectivity factor) is 1.6

----------
# Tested on: AB1 cells
# EXPERIMENT_SUMMARY: NO release in vitro in AB1 cells (Griess reagent)
# Assay type: cell-based, mouse
# MEASUREMENT_PARAMETERS: 25 μM, 24 h, relative to untreated cells
MEASURED_METRIC: intracellular NO release (in words)

Reference set (4 entries):
QUERY_SMILES: [O-][n+]1onc(-c2noc(-c3ccccc3Cl)n2)c1-c1noc(-c2ccccc2Cl)n1
intracellular NO release (in words): low

QUERY_SMILES: COc1ccc(-c2nc(-c3no[n+]([O-])c3-c3noc(-c4ccc(OC)cc4)n3)no2)cc1
intracellular NO release (in words): minimal NO release

QUERY_SMILES: [O-][n+]1onc(-c2noc(-c3ccccc3)n2)c1-c1noc(-c2ccccc2)n1
intracellular NO release (in words): minimal NO release

QUERY_SMILES: Cc1ccc(-c2nc(-c3no[n+]([O-])c3-c3noc(-c4ccc(C)cc4)n3)no2)cc1
intracellular NO release (in words): minimal NO release

Could you now consider this next molecule?
Sure, the documented intracellular NO release (in words) for O=[N+]([O-])c1ccc(-c2nc(-c3no[n+]([O-])c3-c3noc(-c4ccc([N+](=O)[O-])cc4)n3)no2)cc1 is minimal NO release

----------
# Tested on: AB1 and JU77 cell lines
# EXPERIMENT_SUMMARY: cells
# MEASUREMENT_PARAMETERS: MPM, 72 h, read-out: IC50 (cytotoxicity) in both MPM cell lines
pIC50: −log10 of the molar value.
// reported pIC50 for each item listed

QUERY_SMILES: [O-][n+]1onc(-c2noc(-c3ccncc3)n2)c1-c1noc(-c2ccncc2)n1
pIC50: 4.85 to 5.52

Now for a further compound.
Kindly note the recorded pIC50 for O=[N+]([O-])c1ccccc1-c1nc(-c2no[n+]([O-])c2-c2noc(-c3ccccc3[N+](=O)[O-])n2)no1 , which is 4.85 to 5.52

----------
# Test system: JU77 (human malignant mesothelioma) cells
# EXPERIMENT_SUMMARY: cells
# MEASUREMENT_PARAMETERS: 72 h, read-out: IC50 JU77
IC50 listing for selected molecules.
Provide the reading as a plain figure in µM.

QUERY_SMILES: COc1ccc(-c2nc(-c3no[n+]([O-])c3-c3noc(-c4ccc(OC)c(OC)c4)n3)no2)cc1OC
MEASURED_METRIC: IC50
ASSAY_VALUE: 19.7

QUERY_SMILES: O=[N+]([O-])c1cccc(-c2nc(-c3no[n+]([O-])c3-c3noc(-c4cccc([N+](=O)[O-])c4)n3)no2)c1
MEASURED_METRIC: IC50
ASSAY_VALUE: 7.3

QUERY_SMILES: [O-][n+]1onc(-c2noc(-c3ccccc3)n2)c1-c1noc(-c2ccccc2)n1
MEASURED_METRIC: IC50
ASSAY_VALUE: 10.5

QUERY_SMILES: Cc1ccc(-c2nc(-c3no[n+]([O-])c3-c3noc(-c4ccc(C)cc4)n3)no2)cc1
MEASURED_METRIC: IC50
ASSAY_VALUE: 16

QUERY_SMILES: [O-][n+]1onc(-c2noc(-c3ccncc3)n2)c1-c1noc(-c2ccncc2)n1
MEASURED_METRIC: IC50
ASSAY_VALUE: 14.1

Documented IC50 of [O-][n+]1onc(-c2noc(-c3ccccc3Cl)n2)c1-c1noc(-c2ccccc2Cl)n1 : 4.9

Looking up O=[N+]([O-])c1ccccc1-c1nc(-c2no[n+]([O-])c2-c2noc(-c3ccccc3[N+](=O)[O-])n2)no1 , I found its IC50 recorded as 3

----------
# System: AB1 (mouse malignant mesothelioma) cells
# EXPERIMENT_SUMMARY: cells
# MEASUREMENT_PARAMETERS: AB1, 72 h, read-out: IC50 AB1
We label by threshold. Values of IC50 strictly beneath 20 µM are T. Values of 20 µM and up are F.

Example entries begin here.
QUERY_SMILES: Cc1ccc(-c2nc(-c3no[n+]([O-])c3-c3noc(-c4ccc(C)cc4)n3)no2)cc1
EXPERIMENTAL_SYSTEM: AB1 (mouse malignant mesothelioma) cells
CATEGORY: F

QUERY_SMILES: COc1ccc(-c2nc(-c3no[n+]([O-])c3-c3noc(-c4ccc(OC)cc4)n3)no2)cc1
EXPERIMENTAL_SYSTEM: AB1 (mouse malignant mesothelioma) cells
CATEGORY: F

Q) Does this compound meet the criterion IC50 < 20 µM? [O-][n+]1onc(-c2noc(-c3ccccc3)n2)c1-c1noc(-c2ccccc2)n1
A) F

Q) Here's an entry: COc1ccc(-c2nc(-c3no[n+]([O-])c3-c3noc(-c4ccc(OC)c(OC)c4)n3)no2)cc1OC . Is its IC50 below 20 µM?
A) F

----------
# Test system: MRC-5 (human embryonic lung fibroblast) cells
# EXPERIMENT_SUMMARY: MTT cytotoxicity, MRC-5 cells, 72 h
# Format: cell-based
# MEASUREMENT_PARAMETERS: MRC5, 72 h exposure
MEASURED_METRIC: pIC50
Here pIC50 is given on a logarithmic scale as minus log10 of the concentration in mol/L.

Examples with answers:
QUERY_SMILES: [O-][n+]1onc(-c2noc(-c3ccncc3)n2)c1-c1noc(-c2ccncc2)n1
ASSAY_VALUE: 4.52
--
QUERY_SMILES: COc1ccc(-c2nc(-c3no[n+]([O-])c3-c3noc(-c4ccc(OC)c(OC)c4)n3)no2)cc1OC
ASSAY_VALUE: 4.59

Consider the additional molecule presented here.
// pIC50 (MRC-5 (human embryonic lung fibroblast) cells) for O=[N+]([O-])c1cccc(-c2nc(-c3no[n+]([O-])c3-c3noc(-c4cccc([N+](=O)[O-])c4)n3)no2)c1 = 4.55

----------
# Tested on: JU77 (human malignant mesothelioma) cells
# MEASUREMENT_PARAMETERS: ratio of the IC50 value in MRC-5 to that in JU77
# key: entry, value: SF JU77 (selectivity factor)
# answer = number (no unit)

// known answers, use as guide
COMPOUND: [O-][n+]1onc(-c2noc(-c3ccncc3)n2)c1-c1noc(-c2ccncc2)n1 [2f]
SF JU77 (selectivity factor): 2.1
--
COMPOUND: O=[N+]([O-])c1ccccc1-c1nc(-c2no[n+]([O-])c2-c2noc(-c3ccccc3[N+](=O)[O-])n2)no1 [2d]
SF JU77 (selectivity factor): 5.7

Below: the item to evaluate.
Notebook: O=[N+]([O-])c1cccc(-c2nc(-c3no[n+]([O-])c3-c3noc(-c4cccc([N+](=O)[O-])c4)n3)no2)c1 [2c] , SF JU77 (selectivity factor) read as 3.8

----------
# Tested on: AB1 (mouse malignant mesothelioma) cells
# EXPERIMENT_SUMMARY: cells
# MEASUREMENT_PARAMETERS: AB1, 72 h, read-out: IC50 AB1
Catalogue of molecules with associated IC50
Please reply with the bare figure in µM and do not write the unit itself.

Recorded IC50, per entry:
QUERY_SMILES: O=[N+]([O-])c1cccc(-c2nc(-c3no[n+]([O-])c3-c3noc(-c4cccc([N+](=O)[O-])c4)n3)no2)c1
EXPERIMENTAL_SYSTEM: AB1 (mouse malignant mesothelioma) cells
UNIT_ANNOTATION: µM
ASSAY_VALUE: 19.9

QUERY_SMILES: O=[N+]([O-])c1ccccc1-c1nc(-c2no[n+]([O-])c2-c2noc(-c3ccccc3[N+](=O)[O-])n2)no1
EXPERIMENTAL_SYSTEM: AB1 (mouse malignant mesothelioma) cells
UNIT_ANNOTATION: µM
ASSAY_VALUE: 11.2

QUERY_SMILES: [O-][n+]1onc(-c2noc(-c3ccccc3Cl)n2)c1-c1noc(-c2ccccc2Cl)n1
EXPERIMENTAL_SYSTEM: AB1 (mouse malignant mesothelioma) cells
UNIT_ANNOTATION: µM
ASSAY_VALUE: 15.5

Sure, the documented IC50 for [O-][n+]1onc(-c2noc(-c3ccncc3)n2)c1-c1noc(-c2ccncc2)n1 is 8.5
